Listing: AC50 of selected compounds
subjectOfTest: B2 bradykinin receptor (Homo sapiens)
Sequence (P30411 whole entry): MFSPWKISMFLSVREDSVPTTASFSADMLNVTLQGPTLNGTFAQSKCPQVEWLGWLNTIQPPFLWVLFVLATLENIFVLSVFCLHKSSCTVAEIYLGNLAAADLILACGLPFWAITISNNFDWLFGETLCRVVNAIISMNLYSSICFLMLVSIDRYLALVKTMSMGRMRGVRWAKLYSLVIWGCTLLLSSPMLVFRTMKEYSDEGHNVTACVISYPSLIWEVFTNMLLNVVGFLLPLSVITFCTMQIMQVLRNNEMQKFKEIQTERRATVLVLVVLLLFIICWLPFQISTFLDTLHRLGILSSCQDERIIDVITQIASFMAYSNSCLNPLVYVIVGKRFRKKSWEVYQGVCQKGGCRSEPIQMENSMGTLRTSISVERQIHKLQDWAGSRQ
measure: AC50

compound="CCC(=O)O[C@H]1CC[C@H]2[C@@H]3CCC4=CC(=O)CC[C@]4(C)[C@H]3CC[C@]12C [TESTOSTERONE PROPIONATE]" experimentalresult="> 10 µM"
compound="Cc1cccc(N2CC(CO)OC2=O)c1 (stereo not drawn)" experimentalresult="> 30 µM"
compound="OC1(c2ccc(Cl)cc2)c2ccccc2C2=NCCN21 (stereo not drawn)" experimentalresult="> 30 µM"
